METHOD NOTES: Stability of QC samples in aCSF (freeze-thaw, room temperature)
Format: physicochemical
MEASUREMENT CONTEXT: aCSF QC 40 ng/mL, room temperature 24 h, percentage remaining, n = 5
The compounds listed here are annotated with their Stability room temperature.
Please state the number and follow it with the unit.

Some entries whose results are on file:
> print(dat)
                                   compound  measured.value
1  COc1ccc2ccc(=O)oc2c1CC=C(C)C [Compound 10, osthole]     94.93±5.05%
2  CC=C(C)C(=O)OC(C(O)c1cc2ccc(=O)oc2cc1OC)C(C)(C)O (centres unmarked) [Compound 9, angelol B]     95.67±3.47%
3  O=c1ccc2cc3ccoc3cc2o1 [Compound 1, psoralen]     98.36±3.57%
4  COc1c2ccoc2cc2oc(=O)ccc12 [Compound 3, bergapten]     94.61±4.23%

Now look at this one.
Query string: Name the reported Stability room temperature value associated with the compound CC(C)(O)[C@H](O)COc1c2ccoc2cc2oc(=O)ccc12 [Compound 8, oxypeucedanin hydrate]
Result string: 95.09±3.26%

---

The compounds listed here are annotated with their Stability Freeze-thaw.
METHOD NOTES: Stability of QC samples in rat brain homogenate (freeze-thaw, room temperature)
Format: physicochemical
MEASUREMENT CONTEXT: rat brain QC 160 ng/mL, three freeze-thaw cycles, percentage remaining, n = 5
I only need the number, in %, no unit after it.

> print(dat)
                                   compound           readout.type  measured.value
1                     O=c1ccc2cc3ccoc3cc2o1  Stability Freeze-thaw           96.30
2  CC=C(C)C(=O)OC(C(O)c1cc2ccc(=O)oc2cc1OC)C(C)(C)O (stereo not shown)  Stability Freeze-thaw          102.98
3  CC(C)(O)[C@H](O)COc1c2ccoc2cc2oc(=O)ccc12 [Compound 8, oxypeucedanin hydrate]  Stability Freeze-thaw          102.42

Query string: Name the reported Stability Freeze-thaw value associated with the compound COc1c2ccoc2cc2oc(=O)ccc12
Result string: 90.70

Query string: Now the compound CC(C)=CCOc1c2ccoc2cc2oc(=O)ccc12
Result string: 89.68

Query string: Now the compound COc1ccc2ccc(=O)oc2c1CC=C(C)C
Result string: 98.13

Query string: Now the compound C/C=C(/C)C(=O)OC(C)(C)[C@@H]1Cc2c(ccc3ccc(=O)oc23)O1
Result string: 90.93

---

METHOD NOTES: Rat CSF distribution after oral administration of APRE (UPLC-MS/MS)
MEASUREMENT CONTEXT: rat, CSF, po, 4 g/kg
The compounds listed here are annotated with their Cmax.
I only need the number, in ng/mL, no unit after it.

Some entries whose results are on file:
> print(dat)
                                   compound  readout.type  measured.value
1  CC(C)(O)[C@H](O)COc1c2ccoc2cc2oc(=O)ccc12 [Compound 8, oxypeucedanin hydrate]          Cmax            7.47
2                 COc1c2ccoc2cc2oc(=O)ccc12          Cmax            3.95
3                     O=c1ccc2cc3ccoc3cc2o1          Cmax            4.49
4       CC(C)(O)[C@H]1Cc2cc3ccc(=O)oc3cc2O1          Cmax            43.5
5              COc1ccc2ccc(=O)oc2c1CC=C(C)C          Cmax            4.31
6  COc1ccc2ccc(=O)oc2c1CC(O)C(C)(C)O (centres unmarked) [Compound 11, Meranzin hydrate]          Cmax             129
7    CC(C)(O)[C@@H]1Cc2c(ccc3ccc(=O)oc23)O1          Cmax             485

Now look at this one.
Query string: Name the reported Cmax value associated with the compound CC=C(C)C(=O)OC(C(O)c1cc2ccc(=O)oc2cc1OC)C(C)(C)O (centres unmarked)
Result string: 7.65
